We begin with a simple list: items and their reported GI50.
Test system: SF-539
assay-overview: Growth inhibition of human SF539 cells by sulforhodamine B assay
Format: functional
outcome-measure: GI50

1. CCCCCCCCCCCC[C@@H](O)[C@H]1CC[C@H]([C@H](O)CCCCCCCCCCCCC2=C[C@H](C)OC2=O)O1 | > 100 µM
2. CCCCCCCCCCCC[C@@H](O)[C@H]1CC[C@H]([C@H](O)CCCCCCCCCC[C@@H](F)CC2=C[C@H](C)OC2=O)O1 | > 100 µM
3. CCCCCCCCCCCC[C@@H](O)[C@H]1CC[C@H]([C@H](O)CCCCCCCCCC[C@@H](O)CC2=C[C@H](C)OC2=O)O1 | 88 µM
4. CCCCCCCCCCCC[C@@H](O)[C@H]1CC[C@H]([C@H](O)CCCCCCCCCC[C@H](F)CC2=C[C@H](C)OC2=O)O1 | > 100 µM

Taken from ChEMBL document CHEMBL1152187.
